GI50 values, listed per item
# Tested on: SN12C
# Test summary: NCI tumour cell line growth inhibition, 48 h
The source made the active and inactive calls. Rule as the data show it: active = GI50 up to about 1.1 µM and inactive = higher.

Some compounds with known GI50 results, for comparison:
Field request: GI50 | item: COc1cc(/C=C/c2sc3ccccc3[n+]2C)ccc1N(C)C
12.9 µM (inactive)

Field request: GI50 | item: C[C@H]1O[C@@H](C(C)(C)C)OC(=O)[C@@H]1C(OC(=O)c1ccccc1)c1cccc2ccccc12 (some centres undefined)
> 100 µM (inactive)

Field request: GI50 | item: CCOC(=O)NC(C(=O)OCC)(N1CCN(c2cc3c(cc2F)c(=O)c(C(=O)O)cn3CC)CC1)C(F)(F)F (centres undefined)
> 100 µM (inactive)

Field request: GI50 | item: C=C1CC(C)(COc2cc(=O)oc3ccccc23)OC1=O (centres undefined)
8.3 µM (inactive)

Field request: GI50 | item: Cc1ccc(S(=O)(=O)N/N=C2\C=CC3(CC2)C(=O)N(I)c2ccccc23)cc1 (centres undefined)
> 100 µM (inactive)

---
Field request: GI50 | item: CC(CC=O)Nc1nn2c(=O)c3ccccc3nc2s1 (centres undefined)
> 100 µM (inactive)

Field request: GI50 | item: CCC1(C)NN=c2s/c(=C/c3ccc(OC)cc3)c(=O)n2N1 (centres undefined)
> 100 µM (inactive)

Field request: GI50 | item: COc1cc2c(c(OC)c1OC)C(=O)[C@@H](O)[C@H]2NC(N)=O
> 100 µM (inactive)

Field request: GI50 | item: CCN(CC)c1c(C(=O)/C=C/c2ccc(OC)cc2)c(-c2ccccc2)nn(C)c1=O
21 µM (inactive)

====

# Tested on: A549
# Test summary: NCI tumour cell line growth inhibition, 48 h
Activity calls are given as the source filed them. Rule as the data show it: active = GI50 up to about 1.1 µM and inactive = higher.
Parameter: GI50

Some compounds with known GI50 results, for comparison:
Field request: GI50 | item: CC(C)(C)c1cc[n+](C[n+]2ccc(C(C)(C)C)cc2)cc1
> 100 µM (inactive)

Field request: GI50 | item: Nc1ccc2c(c1)nc1n2C(c2c(F)cccc2F)SC1 (stereo unspecified)
> 100 µM (inactive)

Field request: GI50 | item: FC(F)(F)c1ccc2nc3n(c2c1)C(c1c(Cl)cccc1Cl)SC3 (stereo unspecified)
15 µM (inactive)

---
Field request: GI50 | item: C/C(=N\NC(=O)c1ccncc1)c1cccc(C(F)(F)F)c1
> 10 µM (inactive)

Field request: GI50 | item: COc1ccc(Nc2nc3ccc(C(F)(F)F)cc3nc2C(=O)O)cc1
29.4 µM (inactive)

Field request: GI50 | item: CCN(CC)CCSc1nc(-c2c[nH]c3nc(C)ccc3c2=O)n[nH]1
> 100 µM (inactive)

====

GI50 values, listed per item
# Tested on: CAKI-1
# Test summary: NCI tumour cell line growth inhibition, 48 h
The source made the active and inactive calls. Rule as the data show it: active = GI50 up to about 1.1 µM and inactive = higher.

Some molecules with known GI50 results, for comparison:
Field request: GI50 | item: C=CN1CCN(c2ccccc2)P1(=O)Oc1ccccc1 (stereo not given)
> 100 µM (inactive)

Field request: GI50 | item: NC(=O)NC1C(c2ccccc2)=C1c1ccccc1
18.9 µM (inactive)

Field request: GI50 | item: COc1cc2c(cc1OC)C1C(O)C(OC)C=C3CC[N+](C)(C2)C31 (stereo not given)
> 100 µM (inactive)

Field request: GI50 | item: FC(F)(F)c1ccc2nc3n(c2c1)C(c1c(Cl)cccc1Cl)SC3 (stereo not given)
14.8 µM (inactive)

---
Field request: GI50 | item: O=C(CNc1ccccc1[N+](=O)[O-])Nn1cnc2ccc(S(=O)(=O)Nc3ccccc3[N+](=O)[O-])cc2c1=O
> 100 µM (inactive)
